# experiment-description: CPHEA_Stoker_NIS_Cytotoxicity: Cytotoxicity Assessment for CPHEA's Radioactive Iodide Uptake (RAIU) Assay for Sodium/Iodide Symporter (NIS) Inhibition, Stoker and Laws Labs (AID 2283897)
# Description: CPHEA_Stoker_NIS is a cell-based, single-readout assay that uses hNIS-HEK293T-EPA, a novel human kidney cell line expressing human NIS, with measurements taken at 2 hours after chemical dosing in a 96-well plate. […] A parallel cytoxicity assay (Cell Titer Glo, Promega) was also run in the same cell line.CPHEA_Stoker_NIS_Cytotoxicity is one of 2 assay components measured from the CPHEA_Stoker_NIS assay. […]
The source made the active and inactive calls. Rule for the calls: active = hit-call score of the fitted dose curve at least 0.9, where 1 is the maximum; inconclusive = response in the unintended direction; inactive = score below 0.9.
Result category, one only: active, inactive

Ask: Recorded test call requested for CC(Cc1ccc(C(C)(C)C)cc1)CN1C[C@@H](C)O[C@@H](C)C1 (stereo partly specified)
Reply: inactive

Ask: Recorded test call requested for O=[N+]([O-])O
Reply: inactive

Ask: Recorded test call requested for CC(=O)c1cc2c(cc1C)C(C)(C)C(C)CC2(C)C (stereo unspecified)
Reply: inactive

Ask: Recorded test call requested for CC(C)(c1cc(Cl)c(O)c(Cl)c1)c1cc(Cl)c(O)c(Cl)c1
Reply: active

Ask: Recorded test call requested for Cc1ccc(OP(=O)(Oc2ccc(C)cc2)Oc2ccc(C)cc2)cc1 (tested in a mixture with another compound)
Reply: inactive

Ask: Recorded test call requested for O=P(O)(Oc1ccccc1)Oc1ccccc1
Reply: inactive

###

# Read-out: Tumor necrosis factor (Homo sapiens)
# experiment-description: BSK_BT_xTNFa: BioMAP Diversity Plus: BT Assay for Tumor necrosis factor alpha (TNF-alpha) Biomarker Activity (AID 2284230)
# condition-details: primary human B cells with PBMC
Activity calls are given as the source filed them. Rule for the calls: active = hit-call score of the fitted dose curve at least 0.9, where 1 is the maximum; inactive = score below 0.9.
Result category, one only: T (active), F (inactive)

Ask: Recorded test call requested for Oc1cc(Cl)ccc1Cl
Reply: F

Ask: Recorded test call requested for CC(C)(c1cc(Cl)c(O)c(Cl)c1)c1cc(Cl)c(O)c(Cl)c1
Reply: F

Ask: Recorded test call requested for C=CCN(CC=C)C(=O)C(Cl)Cl
Reply: F

Ask: Recorded test call requested for CC(C)(C)C(O)C(Oc1ccc(-c2ccccc2)cc1)n1cncn1 (stereo not drawn)
Reply: F

Ask: Recorded test call requested for O=C1C(Cl)=C(Cl)C(=O)C(Cl)=C1Cl
Reply: T

Ask: Recorded test call requested for Nc1ccc(-c2ccc(N)c(N)c2)cc1N
Reply: F

Ask: Recorded test call requested for CCCOC(=O)c1ccccc1C(=O)OCCC
Reply: F

Ask: Recorded test call requested for C=CC(=O)OCC(CC)CCCC (stereo not drawn)
Reply: F

Ask: Recorded test call requested for CC1(C)[C@H](C(=O)O[C@H](C#N)c2cccc(Oc3ccccc3)c2)[C@@H]1C=C(Br)Br
Reply: F

Ask: Recorded test call requested for CC(C)CCCCCCCOC(=O)c1ccccc1C(=O)OCCCCCCCC(C)C
Reply: F

Ask: Recorded test call requested for CC(=O)/C=C/c1ccccc1
Reply: T

Ask: Recorded test call requested for Cc1ccc(OP(=O)(Oc2ccc(C)cc2)Oc2ccc(C)cc2)cc1 (tested in a mixture with another compound)
Reply: F

Ask: Recorded test call requested for CC(C)(C)C(=O)CCl
Reply: F

Ask: Recorded test call requested for O=c1[nH]c(Cl)c(Cl)cc1Cl
Reply: F

Ask: Recorded test call requested for Clc1ccc(-c2ccccc2)cc1
Reply: F

Ask: Recorded test call requested for COCC(=O)N(c1c(C)cccc1C)N1CCOC1=O
Reply: F

Ask: Recorded test call requested for O=[N+]([O-])C=Cc1ccccc1
Reply: T

Ask: Recorded test call requested for O=c1c2ccccc2c(=O)c2c1cc(Cl)c1[nH]c3c([nH]c12)c(Cl)cc1c(=O)c2ccccc2c(=O)c13
Reply: F
